Data origin: ChEMBL document CHEMBL5120946

- subject_of_test: Bromodomain-containing protein 4 (Homo sapiens)
- protocol_description: Inhibition of recombinant human BRD4-2 (333 to 460 residues) expressed in bacterial expression system by bromoscan assay
Label Met when Kd < 3 nM; otherwise Not met.

Cc1cnc(Nc2ccc(C(=O)NC3CCN(C(=O)COCCOCC(=O)N4CCC(NC(=O)c5ccc(Nc6ncc(C)c(Nc7ccc(Cl)c(NS(=O)(=O)C(C)(C)C)c7)n6)cc5F)CC4)CC3)c(F)c2)nc1Nc1ccc(Cl)c(NS(=O)(=O)C(C)(C)C)c1: Not met

INPUT: For this compound, is Kd lower than 3 nM? Cc1cnc(Nc2ccc(C(=O)NC3CCN(C)CC3)c(F)c2)nc1Nc1ccc(Cl)c(NS(=O)(=O)C(C)(C)C)c1
OUTPUT: Not met

INPUT: Below 3 nM on Kd? Entry CCS(=O)(=O)Nc1ccc(Oc2ccc(Cl)cc2)c(-c2cn(C)c(=O)c3ccccc23)c1
OUTPUT: Not met

INPUT: Lab note: confirm whether the reported Kd for this compound is below 3 nM, equality not counting. compound: Cc1cnc(Nc2ccc(C(=O)NC3CCNCC3)c(F)c2)nc1Nc1cc(NS(=O)(=O)C(C)(C)C)cc(C(=O)NCCOCCOCCOCCC(=O)N2CCC(NC(=O)c3ccc(Nc4ncc(C)c(Nc5ccc(Cl)c(NS(=O)(=O)C(C)(C)C)c5)n4)cc3F)CC2)c1
OUTPUT: Not met

INPUT: Threshold test, Kd < 3 nM: CCS(=O)(=O)Nc1ccc(OCCOCCOCCOCCOc2ccc(NS(=O)(=O)CC)cc2-c2cn(C)c(=O)c3ccccc23)c(-c2cn(C)c(=O)c3ccccc23)c1
OUTPUT: Met
